# Method notes: yeast display, Sf9 membrane polyspecificity reagent, FACS + sequencing; frameworks hold sequencing errors
Recorded metric: polyreactivity (PSR sort gate)

Illustrative cases are given below, each with its answer.
Construct sequence	polyreactivity (PSR sort gate)
QVQLVESGGGLVQAGGSLRLSCAASGSIFYNAMGWYRQAPGKERELVAAISYRGGRTYYADSVKGRFTISRDNAKNTVYLQMNSLKPEDTAVYYCAADSTVGRYPYDYWGPGTQVTVSS	high polyreactivity
QVQLVESGGGLVQAGCSLRLSCAASGLIFAVYTMGWYRQAPGKERELVAAITRRSTRTYYADSVKGRFTNSRDNAKNTVYLQMNSLKPEDTAVYYCAADRGSSGAAFEYWGQGTQVTVSS	low polyreactivity
QLQLVESGGGLVQAGGSLRLSCAASGRIFTGNAMGWYRQAPGKERELVAAISYSGGSTYYADSVKGRFTISRDNAKNTVYLQMNSLKPEDTAVYYCAAAGRYLRYGYWGQGTQVTVSS	high polyreactivity
QVQLVESGGGLVQAGGSLRLSCAASGNTFTYYAMGWYRQAPGKERELVAAISSGGRTYYADSVKGRFTISRDNAKNTVYLQMNSLKPEDTAVYYCAARIKYGYPGPRYYYWGQGTQVTVSS	high polyreactivity

For every item in the list below, what is its measured polyreactivity (PSR sort gate)?
1. QVQLVESGGGLVQAGGSLRLSCAASGSTFGSYAMGWYRQAPGKEREFVATINTSNDRTYYADSVKGRFTISRDKAKNTVYLQMNSLKPEDTAVYYSNVLVYNVHTRGYWGQGTQVTVSS
2. QVQLVESGGGLVQAGGSLRLSCAASGRIFSYYVMGWNRQAPGKERELVAAITSGGSTNYADSEKGRFTISRDNAKNTVYLQMNSLKPEDTAVYYCNRAYTYINRLYGYWGQGTQVTVSS
3. QVQLVESGGGLVQAGGSLSLSCAASGRITCGYAMGWYRQAPGKERELVAVINFNGGRTYYADSVKGRFTISRDNAKNTVYLQMNSLKPEDTAVYYCAADSGYEYDYWGQGTQVTVSS
4. QVQLVESGGGLVQAGGSLRLSCAASGRTFGDYAMGWYRQAPGKERELVAAITIGGSTYYADSVKGRFTISRDNAKNTVYLQMNSLKPEDTAVYYCAATTYSIPSRYDSWGQGTQVNVSS
5. QVQLVESGGGLVQAGGSLRLSCAASGRIFYRYAMGWYRQAPGKERELVAAITGSGGRTYADSVKGRFTISRDNAKNTVYLQMNSLKPEDTAVYYCNDRSFCPTESRYDYWGQGTQVTVSS

1. high polyreactivity
2. high polyreactivity
3. low polyreactivity
4. low polyreactivity
5. high polyreactivity

For every item in the list below, what is its measured polyreactivity (PSR sort gate)?
1. QVQLVESGGGLVQARGSLRLSCAASGSIFNLYAMGWYRQAPGKEREFVASISYSGGSTYYADSVKGRFTISRDNAKNTVYLQINSLKPEDTAVYYCNARLEVYGQRYDYWGQGTQVTVSS
2. QVQLVESGGGLVQAGGSLRLSCAASGSIFSRNVMGGSRQAPGKERELVAAITGSGGRTYYADSVKGRFTISRDNAKNTVYLQMNSLKPEDTAVYYCAKSRPGPYDYWGQGTQVTVSS

low polyreactivity
high polyreactivity

* * *

# Method notes: yeast display, Sf9 membrane polyspecificity reagent, FACS + sequencing; frameworks hold sequencing errors
Recorded metric: polyreactivity (PSR sort gate)

Construct sequence	polyreactivity (PSR sort gate)
QVQLVESGGGLVQAGGSLRLSCAASGVTFRLDAMGCYRQAPGKDRELVAAISRSGTSTYYADSVKGRFTISRDNPKNTVYLHMNTRKPDDTAVYYCNTARYRYAWYTRYVSWGQGTQVTVSS	high polyreactivity
QVQLQESGGGLVQVGGSQRLSCAASGNIFYNYAMGRYRHAQGKEHEFDATINHGTSINYADSVKGRFTISRDNAKNTVYLQMNSLKPEDTAVYYCAADLSWTDNLFYWGQGTQVTVSS	low polyreactivity
QVQLVESGGGLVQEGGSLRLSCAASGLIFNRYAMGWYRQAPGKERELVAAITSRGGRTYYADSVKGRFTISRDNAKNTVYLQMNSLKPEDTAVYYCNRTPTGSYLYGMDYWGQGTQVTVSS	high polyreactivity
QVQLVESGGRLVQAGGTLRLSCAASGRTLSNYALGWSRQAPGKERELVAAISSSGSTNYADSVKGRFTISRDNAKNTVYLQMNSLKPEDSAVYYCAAESWFLRWYRYDYWGQGTQVTVSS	low polyreactivity

Entry `QVQLVESGGGLVQAGGSLRLSCAASGSTGYYAMGWYRQAPGKERELVAAISYRGASTYYADSVKGRFTISRDNAKNTVYLQMNSLKPEDTAVYYCAALRQERVKYGYWGQGTQVTVSS` ; polyreactivity (PSR sort gate) = high polyreactivity

* * *

# Method notes: yeast display, Sf9 membrane polyspecificity reagent, FACS + sequencing; frameworks hold sequencing errors
Recorded metric: polyreactivity (PSR sort gate)

Construct sequence	Recorded metric	Experimental value
QVQLVESGGGLVQAGGSLRLSCAASGSTFSTYAMGWYRQAPGTERELVAASRWSGGSTYYADSVKGRFTISRDNAKNTVYLQMNSLKPEDTAVYYCAKGIRRWYGGSDYWGQGTQVTVSS	polyreactivity (PSR sort gate)	low polyreactivity
QVQLVESAGGLVQAGGCLRLSCAACGSIFLYNAMGWYRQAPVKERELVAGITGGGGTNYADSVKGRFTISRDNAKNTVYLQMNSLKPEDTAVYYCAADPSGQFPYSYYNYDYDYWGQGTQVTVSS	polyreactivity (PSR sort gate)	low polyreactivity

* * *

# Method notes: yeast display, Sf9 membrane polyspecificity reagent, FACS + sequencing; frameworks hold sequencing errors
Recorded metric: polyreactivity (PSR sort gate)

Illustrative cases are given below, each with its answer.
Construct sequence	Experimental value
QVQLVESGGGLVQAGGSLRLSCAASGSIFLVNAMGWYRQAPGKERELVAIDGSGGSTYADSVKGRFTISRDNAMNTVYLQMNILKPEDTAVYYCAKDQEGPLYDYWGQGTQVTVSS	low polyreactivity
QVQLVESGGRLVQAGGSLRLSCAASGSNLLWNTMGWYRQAPGKERELVAGITSGGNTYYADSVKGRFTISRDNAKNTVYLKMNSLKPEDTAVYYCSYYYWGQGTQVTVSS	low polyreactivity
QVQLVESGGGLVQAGGSLRLSCAASGRTFASNAMGWYRQAPGKERELVAAISSAGGTNYADSVKGRFTISRDNAKNTVYLQMNSLKPEDTAVYYCAAASPYYSYHRYIYYYWGQGTQVTVSS	high polyreactivity
QVQLVESGGGLVQAGGSLRLSCAAYGRTIRYYSMGRYRQAPAKERELVATISRRSGNTYYADSVKGRFTLSRDNAKNTVYLKMNSLKPEDTAVYYCAVRYFGLYNYDYWGQGTQVTVSS	high polyreactivity
QVQLVESGGGLVQAAGSLRLSYAASGSTFVYNGMGSYRQAPAKERELVATISSTGSTNYADSVKGRFTISRDNAKNTVYLQMNSLKPEDTAVYYCATEYITYRAYDYWGQGTQVTVSS	low polyreactivity

For every item in the list below, what is its measured polyreactivity (PSR sort gate)?
1. QVQLVESGGGLVQAGGSLRLRCAASGRTFDTYAMGWYRQAPWKERELVASITYRGGSTYYADSVKGRFTISRDNGKNTVYLQLNSLKPVDTAVYYCNAKVKRNKRWRGYWGQGTQVTVSS
2. QVQLVESGGGLLQAGGSLRLSCAASGITFRRNTMGWYREAPGKVRELVATISWRGGNTFYADSVKGRCTISRDNAKNTVYLQMNSRKPEDTAVYYCAAYSPYITRPGYAPYGYWGQATQVTVSS

1: high polyreactivity; 2: high polyreactivity

For every item in the list below, what is its measured polyreactivity (PSR sort gate)?
1. QVQLVESGGGLVQAGGSLRLICAASGRIFGTNAIGWYRQAPGQEREVVATITRGGGNTYYADSVKGRFTISRDNAKNTVYLQMNSLKPEDTAVYYCAAKFHRFAWYAHYDYWGPGTQVTVSS
2. QVQLVESGGGLVQAGGSLRLSCADSGFTFRTYAMGWYRQAPGKEREFVAAITTYGGSTYYADSVKGRFTISRDNAKYTVYLQMNTLKPEDTAVYYCATRGRLRNYDYWGQGTQVTVSS
3. QVQLVESGGGLVQAGGSLSLSSAASGRPFIRNAMGWSRQAAGKERELVAGINSGGITNYADSVKGRFTISRDNAKNTVYLQMNSLKPVDTAFYYCNARQVLYGLYLRAYPYEYWGQGTQVTVSS

["low polyreactivity", "high polyreactivity", "low polyreactivity"]

For every item in the list below, what is its measured polyreactivity (PSR sort gate)?
1. QVQLQESGGGLVQAGGSLRQSYAASGYIFPSLAMGWYRQAPGKEREFVAAIGRGSTNNYADSVKGRFTISRDNAKNTAYQQMNSLKPEDTAVYYCAADASPLTRNLYWGQGTQVTVSS
2. QVQLVESGGGLVQAGGSLRLSCAASGRTFRRYVMGGYRQAPGKERELVATITSGGRTNYADSVKGRFTISRDNAKNTVYLQMNSLKPEDTAVYYCNAVRIGLRYYYWGQGTQVTVSS
3. QVQLVESGGGLVQAGGSLRLNCAASGSILYLNAMGWYRQAPGKERELLAAITWSGGSTSYADSVKGRFTISRDYAKNTVSLQMNSLKPEDTAVYYCSAVRRGYGGVYYAGGYWGQGTQVTVSW
4. QVQHVESGGGLVQAGGSLRLSCAASFYVYAMGWYRQAPGKERELVAAITYSGGGTYYADSVKGRFTISRDNAKKTVYLQMYSLKPEDTAVYYCNARATAYGWRGYAGFEFDYWGQGTQVTVSS
5. QDQLVESGAGLVQAGGSLRLSCAASGFNFYRYAMGWYREAPGKERELVATISVRGGTYYADSVKGRFTISRDNAKNTVYLQMNSLKPEDTAVYYCAARVHLWGDTLKFVRVGYWGQGTQVTVSS
6. QVQLVESGGGLVQAGGSLRLSCAASGSTFNLYAMGWYRQAPGKERELVASISRSGVSTYYADSVKGRFTISRDNAKNTVYLQMNSLKPEDTAVYYCAVDKVLYRLYPGMDYWGQGTQVTVSS
7. QDLLVESGGGLLQAGGSLRLICAASGYTFTYYAMGWYRQAPGKERELVAAINYSGGRTDYADSVKGRFTLSRDNAKNTVYLQKNSMNPEDTAVYYCAAYTRNGDFDYWGQGTQVTVSS

1: low polyreactivity; 2: low polyreactivity; 3: low polyreactivity; 4: low polyreactivity; 5: low polyreactivity; 6: low polyreactivity; 7: high polyreactivity

For every item in the list below, what is its measured polyreactivity (PSR sort gate)?
1. QVQLVESGGGLVQAGGILRLSCAASGRIFKYNAMGWYRQAPGKERELVAVITSGGSTYYADSVKGRFTISRDNAKNTVYLQMNSLKPEDTAVYYCAKKYYKVHKFDYCGQGTQVTVSS
2. QVQLVESGGGLVQAGGSLRLSCASSGIIFAQYTMGWYRQEPGKERELVAAINRNGGSTYYADSVKGRCTISRDNAKHTVYLQMNSLKPEDTAVYYCTKDIERYVRIYDSWGQGTQVTVSS

low polyreactivity
low polyreactivity

For every item in the list below, what is its measured polyreactivity (PSR sort gate)?
1. QVQLVESGGGLVQAGGSLRLSCAASGGIFRANTMGWYRQAPGKERELVAVISWSGARTYYADSVKGRFTISRDNAKNTVYLQMNSLKPEDTAVYYCNARVPKLGSMYYWGHGTQVTVSS
2. QVQLVESGGGIVQAGGSLRLSCAASGRIFRLNAMGWYRQAPGKERELVAAISSRAGSTYYADSVKGRFTISRDNAKNTVYLQMNSLKPEDTAVYYCAARTYSSRLGRDSDYWGQGTQVTVSS

high polyreactivity
high polyreactivity
